# SUBJECT_OF_TEST: human MC4R (Homo sapiens, UniProt P32245)
# Construct: host or cells: HEK-293 cells stably expressing the GScAMP22F split-luciferase cAMP sensor and hMC4R, G418 selection
# Sequence (P32245 whole entry): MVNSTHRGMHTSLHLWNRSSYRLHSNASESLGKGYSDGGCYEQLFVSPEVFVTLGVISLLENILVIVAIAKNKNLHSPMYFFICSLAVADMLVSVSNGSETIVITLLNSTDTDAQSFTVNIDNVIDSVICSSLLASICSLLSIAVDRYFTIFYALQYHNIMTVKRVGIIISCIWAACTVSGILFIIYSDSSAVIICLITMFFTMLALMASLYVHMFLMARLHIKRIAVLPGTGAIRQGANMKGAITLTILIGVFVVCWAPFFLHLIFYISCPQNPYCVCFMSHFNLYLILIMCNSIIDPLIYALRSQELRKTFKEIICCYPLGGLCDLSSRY
# MEASUREMENT_DESCRIPTION: split-luciferase cAMP sensor assay, agonist mode (measurement window 1), hMC4R
# Assay type: cell-based
# TEST_CONTEXT: % maximal activation, agonist mode; read-out: MC4R cAMP % max activation
Positions of bridges follow the written chain, without caps; N, C: chain ends. Non-standard residues stand in square brackets, D forms with d. Residues, ends and D or L forms follow the SMILES beside them. NMeR = CN[C@@H](CCCNC(=N)N)C(=O)O; Cit = NC(=O)NCCC[C@H](N)C(=O)O; Aib = CC(C)(N)C(=O)O
Could you please report measured Emax for the items listed next?
Numbers only, in %.

CC(=O)N[C@@H](CCCNC(=N)N)C(=O)N[C@H]1CSSC[C@@H](C(N)=O)NC(=O)[C@@H](Cc2c[nH]c3ccccc23)NC(=O)[C@H](CCCNC(=N)N)N(C)C(=O)[C@@H](Cc2ccccc2)NC(=O)[C@H](CCCNC(=N)N)NC(=O)[C@@H](C)NC1=O [CTX-1284] (Ac-RC[dA]R[dF][NMeR][dW]C-NH2; disulfide 2-8) = 91

We now examine a further molecule.
Query string: What reported Emax corresponds to COc1ccc(C[C@H]2NC(=O)[C@H](CCCNC(N)=O)NC(=O)C(C)(C)NC(=O)[C@@H](NC(=O)[C@H](CCCNC(=N)N)NC(C)=O)CSSC[C@@H](C(N)=O)NC(=O)[C@H](Cc3ccccc3)NC(=O)[C@H](CCCNC(=N)N)NC2=O)cc1 [CTX-1299] (Ac-RC[Aib][Cit][dY](Me)RFC-NH2; disulfide 2-8) on human MC4R (Homo sapiens, UniProt P32245)?
Result string: 78

---

Could you please report measured Emax for the items listed next?
# SUBJECT_OF_TEST: human MC4R (Homo sapiens, UniProt P32245)
# Construct: host or cells: HEK-293 cells stably expressing the GScAMP22F split-luciferase cAMP sensor and hMC4R, G418 selection
# MEASUREMENT_DESCRIPTION: split-luciferase cAMP sensor assay, agonist mode (measurement window 1), hMC4R
# Type: cell-based
# TEST_CONTEXT: % maximal activation, agonist mode; read-out: MC4R cAMP % max activation
Positions of bridges follow the written chain, without caps; N, C: chain ends. Non-standard residues stand in square brackets, D forms with d. Residues, ends and D or L forms follow the SMILES beside them. d1Nal = N[C@H](Cc1cccc2ccccc12)C(=O)O; Cit = NC(=O)NCCC[C@H](N)C(=O)O; Nle = CCCC[C@H](N)C(=O)O; Aib = CC(C)(N)C(=O)O
Numbers only, in %.

CCCC[C@H](NC(=O)[C@H](CCCNC(=N)N)NC(C)=O)C(=O)N[C@H]1CSSC[C@@H](C(N)=O)NC(=O)[C@H](Cc2c[nH]c3ccccc23)NC(=O)[C@H](CCCNC(=N)N)NC(=O)[C@@H](Cc2cccc3ccccc23)NC(=O)[C@H](CCCNC(=N)N)NC1=O [CTX-1611] (Ac-R[Nle]CR[d1Nal]RWC-NH2; disulfide 3-8 (inferred)) = 67
CC[C@H]1NC(=O)[C@@H](NC(=O)[C@H](CCCNC(=N)N)NC(C)=O)CSSC[C@@H](C(N)=O)NC(=O)[C@H](Cc2c[nH]c3ccccc23)NC(=O)[C@H](CCCNC(=N)N)NC(=O)[C@@H](Cc2ccccc2)NC(=O)[C@H](Cc2c[nH]cn2)NC1=O = 102
CCCC[C@H](NC(=O)[C@H](CCCNC(=N)N)NC(C)=O)C(=O)N[C@H]1CSSC[C@@H](C(N)=O)NC(=O)[C@H](Cc2ccccc2)NC(=O)[C@H](CCCNC(=N)N)NC(=O)[C@@H](Cc2ccccc2)NC(=O)[C@H](CCCNC(N)=O)NC1=O [CTX-1626, Arg-Nle-cyclo(Cys-Cit-D-Phe-Arg-Phe-Cys)] (Ac-R[Nle]C[Cit][dF]RFC-NH2; disulfide 3-8 (inferred)) = 83
CC1(C)NC(=O)CSC[C@@H](C(N)=O)NC(=O)[C@H](Cc2ccccc2)NC(=O)[C@H](CCCNC(=N)N)NC(=O)[C@@H](Cc2ccccc2)NC(=O)[C@H](CCCNC(=N)N)NC1=O [CTX-1651] ({CH2CO}-[Aib]R[dF]RFC-NH2; thioether N-6) = 92
CC(=O)N[C@H]1CSSC[C@@H](C(N)=O)NC(=O)[C@H](Cc2c[nH]c3ccccc23)NC(=O)[C@H](CCCNC(=N)N)NC(=O)[C@@H](Cc2ccccc2)NC(=O)[C@H](CCCNC(N)=O)NC(=O)C(C)(C)NC1=O [CTX-1633, cyclo(Cys-Aib-Cit-D-Phe-Arg-Trp-Cys)] (Ac-C[Aib][Cit][dF]RWC-NH2; disulfide 1-7 (inferred)) = 110

We now examine a further compound.
Query string: Need Emax, item CC(=O)N[C@@H](CCCNC(=N)N)C(=O)N[C@H]1CSSC[C@@H](C(N)=O)NC(=O)[C@H](Cc2c[nH]c3ccccc23)NC(=O)[C@H](CCCNC(=N)N)NC(=O)[C@@H](Cc2ccccc2)NC(=O)[C@H](CCCNC(=N)N)NC(=O)[C@@H](C)NC1=O [CTX-1211] (Ac-RC[dA]R[dF]RWC-NH2; disulfide 2-8 (inferred))
Result string: 96
